testTarget: GST-fused Cα-subunit of mouse PKA (GST-PKAC) (mouse, UniProt P05132 1-351)
protocolNotes: pull-down
measuredProperty: IC50 (nM)
Give bare numbers, in nM.

The recorded IC50 for entry His8-DCRD-Myc (domain or fragment) RQFHGSASSLVEAVLISEGLGQFAQDPKFIEVTTQELADACDLTIEEMENAADDILSGGARQS equals 880
